- Test system: T-47D breast
- assay name: NCI-60 one-dose screen, 48 h (100 = growth as untreated, 0 = no growth, -100 = all killed)
- test parameters: 10 µM unless noted
- Procedure: Growth inhibition of the T-47D human tumor cell line is measured as a screen for anti-cancer activity. Cells are grown in 96 well plates and exposed to the test compound for 48 hours. Compounds are tested at a single concentration, which is 10^-5 M for most compounds. The reported endpoint is percent growth (GI% or GIPRCNT), where numbers from 0 - 100% represent growth inhibition, and numbers from -100% - 0 represent cell death. For example, a value of 40 represents 60% growth inhibition. […]
This is part of a sample that, as a whole, favours compounds with a hit. Of some 83,000 tested, about 20% had one in any assay.
# Criterion met = growth below 30% (exclusive); Criterion not met = growth at/above 30%

Reference set (3 entries):
1) C[C@@H]1N=C(c2ccc3ccccc3c2)Nc2nc3ccccn3c2C1=O :: Criterion not met
2) O=C(Nc1cccc(Cl)c1)Nc1ccccc1Cl :: Criterion not met
3) Cc1ccc(NC(=O)c2cc(NCc3cc(O)ccc3O)ccc2O)cc1 :: Criterion not met

**Query** Quick check: does O=C1N(Cc2ccccc2Cl)c2ccccc2C12NN=C(c1ccccc1)S2 (stereo not given) have growth under 30%?
**Result** Criterion not met

**Query** Please state whether growth is below 30% for O=C(Nc1ccc(Cl)cc1)c1cc(-c2ccc(Cl)cc2)c2sc(=O)[nH]c2n1
**Result** Criterion met

**Query** Quick check: does c1ccc(-c2ccc(-c3ccccc3)[nH]2)cc1 have growth under 30%?
**Result** Criterion not met

**Query** Dear reviewer, please state whether COc1cc(/C=C/c2cc(/C=C/c3ccc(O)c(OC)c3)n(C(=O)c3ccccc3Br)n2)ccc1O has growth strictly beneath 30%.
**Result** Criterion not met

**Query** For Cn1cnc([N+](=O)[O-])c1S(=O)(=O)Oc1cccc2ccccc12 , is the recorded growth below the cut-off of 30%?
**Result** Criterion met

**Query** Quick check: does CC(NC(=O)c1ccccc1)C(=O)Nc1ccccc1 (stereo not given) have growth under 30%?
**Result** Criterion not met

**Query** Is growth of CN(C)c1ccc(C2(Cl)c3ccccc3N(C)c3ccccc32)cc1 strictly below 30%?
**Result** Criterion not met

----------
- System: RPMI-8226 leukemia
- assay name: NCI-60 one-dose screen, 48 h (100 = growth as untreated, 0 = no growth, -100 = all killed)
- test parameters: 10 µM unless noted
About 83,000 compounds went through this panel and 20% of them were active in at least one assay; those are over-represented in the sample as a whole.
property: growth (%)
Enter your answer as a number in %; do not include the unit.

Here is how some compounds turned out for growth.
1. CC1CCN(CCCCCOc2ccc3oc4ccc(Cl)cc4c(=O)c3c2)CC1 :: 35.4
2. COc1ccc(-c2nc3c(c(-c4ccc(Cl)cc4)nn3-c3ccccc3)c(-c3ccc(O)cc3)c2C#N)cc1 :: -33
3. COc1cc(/C=C\c2cc(/C=C\c3ccc(O)c(OC)c3)n(C(=O)Nc3ccc(C(F)(F)F)cc3)n2)ccc1O :: -0.214
4. Clc1cccc(CNc2c3ccccc3nc3ccccc23)c1 :: -23.5
5. CC1CCCN(CCCCOc2ccc(-c3ccc(C#N)cc3)cc2)C1 (stereo unspecified) :: 71.1
6. CCCCCCCCCCCCC1CCC(=O)O1 (stereo unspecified) :: 97.4
7. COc1ccc2nc(-c3ccc(-c4noc(-c5ccc(Cl)cc5)n4)cc3)[nH]c2c1 :: 101
8. CC(C)(C)c1ccc(C(=O)Nc2sc3cc(O)ccc3c2C(N)=O)cc1 :: 5.05

Now for another entry.
Data point: COc1cnc2c(c1)C(=O)c1c-2n(CCCN2CCCC2)c(=O)c2cc(Cl)ccc12 ; growth = 20.3

----------
- Tested on: SR leukemia
- assay name: NCI-60 one-dose screen, 48 h (100 = growth as untreated, 0 = no growth, -100 = all killed)
- test parameters: 10 µM unless noted
About 83,000 compounds went through this panel and 20% of them were active in at least one assay; those are over-represented in the sample as a whole. Active and inactive are the calls of the source. The calls were made as follows: active = growth percent below 10; inactive = the rest.
compounds and their reported growth

Example results:
1. CC(C)(C)c1nn(-c2ccccc2)c2c1C(=O)CSC(c1ccc3c(c1)OCO3)N2 (stereo unspecified) :: 78.8% (inactive)
2. CC(C)c1ccc2c(c1)CCC1C2CCCC1(C)NCc1ccccc1 (stereo unspecified) :: 0.88% (active)
3. CCCCCCCCCCCC1=NC(C)(C)CN1CC(C)O (stereo unspecified) :: -61.4% (active)
4. COc1ccc(C(=O)OC2C(OC3C(O)COC(O[C@H]4C[C@H]5[C@@H]6CC=C7C[C@@H](O)CC[C@]7(C)[C@H]6CC[C@]5(C)[C@H]4[C@H](C)C(=O)CCC(C)C)C3OC(N)=O)OCC(O)C2O)cc1 (stereo partly specified) :: -14.1% (active)
5. c1cc(C2CCCCC2)ccc1-c1cnc2nonc2n1 :: 4.98% (active)

Measured growth, CCCCCCCCCCCCCCCCCC(=O)[O][Sn]([CH2]CCC)([CH2]CCC)[CH2]CCC : 15.8% (inactive)

Reported growth of C=C(C)[C@@H]1CC[C@]2(C(=O)NC(COC(=O)C(Cl)Cl)(COC(=O)C(Cl)Cl)COC(=O)C(Cl)Cl)CC[C@]3(C)[C@H](CC[C@@H]4[C@@]5(C)CC[C@H](OC(C)=O)C(C)(C)[C@@H]5CC[C@]43C)[C@@H]12 : 20.4% (inactive)

----------
- Test system: K-562 leukemia
- assay name: NCI-60 one-dose screen, 48 h (100 = growth as untreated, 0 = no growth, -100 = all killed)
- test parameters: 10 µM unless noted
The panel holds about 83,000 compounds, 20% with a hit somewhere; the sample as a whole holds those more often.
Returns one of True or False; True when growth is >= 50%.

Observe how each entry below is paired with its result.
1) CC1OC(n2c3ccccc3c3c4c(c5c6ccccc6[nH]c5c32)C(=O)N(CCN2CCOCC2)C4=O)CC(O)C1O (centres undefined) :: False
2) CCN(CC)C(=O)O/N=C(/C)c1ccccc1 :: True
3) CCCCCCCC/C=C\CCCCCCCC(=O)OCCCCCC :: True

**Query** Test whether the compound COc1ccc2[nH]cc(C3(c4c[nH]c5ccc(OC)cc45)C(=O)Nc4ccc(F)cc43)c2c1 records growth of 50% or higher.
**Result** False

**Query** Reported growth reaches at least 50% for NS(=O)(=O)c1ccc(CCn2c(SCC(=O)N/N=C/c3cc4ccccc4[nH]3)nc3ccccc3c2=O)cc1 ?
**Result** False

**Query** Would you say COc1ccc(-c2nc3c(c(-c4ccc(Cl)cc4)nn3-c3ccccc3)c(-c3ccc(O)cc3)c2C#N)cc1 shows growth at minimum 50%?
**Result** False

**Query** hey, is growth for this one >= 50%? C#CCNc1nc(NCCNC(=O)CCl)nc(N(C)CCCCc2ccccc2)n1
**Result** True

**Query** Entry CCOC(=O)C#Cc1c(C(=O)OCC)nnn1[C@@H]1O[C@H](COC(C)=O)[C@@H](OC(C)=O)[C@H]1OC(C)=O : is its growth no less than 50%?
**Result** False

**Query** Hello, I need to know if Cn1cnc([N+](=O)[O-])c1S(=O)(=O)Oc1ccccc1 has measured growth not below 50%. Thanks!
**Result** False

**Query** Textbook exercise: given the entry CCOC(=O)Cc1cc(Br)c(OCc2ccccc2)c(Br)c1 , state whether its growth is greater than or equal to 50%.
**Result** True

**Query** Could you tell me if the measured growth of Cc1cc(O)c2cc3c(O)c(O)ccc3cc2c1 reaches 50% or more?
**Result** True

----------
- System: NCI-H226 lung
- assay name: NCI-60 one-dose screen, 48 h
- test parameters: 10 µM unless noted
About 83,000 compounds went through this panel and 20% of them were active in at least one assay; those are over-represented in the sample as a whole. Calls of active or inactive are those of the source. The calls were made as follows: active = growth percent below 10; inactive = the rest.
Your reply should match one of these outcome classes. true (1) = active, false (0) = inactive

Solved cases below.
1. C=CCCCCOc1cccc(/C=C2\N=C3SCCCN3C2=O)c1 :: false (0)
2. COc1ccc(-c2ccc(-c3ccc(C(=N)N)s3)s2)cc1 :: true (1)
3. O=C1/C=C/[C@@H](O)[C@@H]2C[C@@H](O)C[C@H]2/C=C/CCC[C@H]([C@@H](O)CO)O1 :: false (0)
4. O=C1C(Cl)=C(Nc2cccc3ccccc23)C(=O)c2ccccc21 :: false (0)

**Query** What did the test return for O=C(NCCN1CCCCC1)n1cc(-c2ccncc2)c(-c2ccc(Cl)c(O)c2)n1 ?
**Result** false (0)

----------
- System: UACC-62 melanoma
- assay name: NCI-60 one-dose screen, 48 h (100 = growth as untreated, 0 = no growth, -100 = all killed)
- test parameters: 10 µM unless noted
This is part of a sample that, as a whole, favours compounds with a hit. Of some 83,000 tested, about 20% had one in any assay.
property: growth (%)
Numeric only. Scale: %

1. COc1cc(C2C(C#N)=C(N)Oc3cc4c(cc32)OCO4)cc2c1OCO2 (stereo not given) :: 30.7

Form field growth, entry CS(=O)(=O)c1ccc(C(=O)N2N=C(c3ccccc3)CC2c2ccc3c(c2)OCO3)cc1 (stereo not given) : 96.4
